# Target Of Assay: General stress protein (Bacteroides thetaiotaomicron, UniProt Q8A7U5)
# Sequence (Q8A7U5 1-138, change not shown): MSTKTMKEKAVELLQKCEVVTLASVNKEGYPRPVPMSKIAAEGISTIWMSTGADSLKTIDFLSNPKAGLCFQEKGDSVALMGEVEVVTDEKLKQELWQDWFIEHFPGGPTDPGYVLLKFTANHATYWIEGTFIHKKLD
# Assay Protocol: The drug is tested on Bacteroides thetaiotaomicron strain: VPI-5482 for biotransformation. The drug concentrations were measured before and after a 12-h incubation by liquid-chromatography-coupled mass spectrometry (LC–MS)
# Assay type: ADME
# Design: dose 2 uM
# Experimental Parameters: 2 µM

Compound | Target Of Assay | Bacterial Biotransformation
CC(=O)OCC(CCn1cnc2cnc(N)nc21)COC(C)=O | General stress protein (Bacteroides thetaiotaomicron, UniProt Q8A7U5) | Compound NOT metabolized
C#C[C@]1(O)CC[C@H]2[C@@H]3CCC4=CC(=O)CC[C@@H]4[C@H]3CC[C@@]21CC | General stress protein (Bacteroides thetaiotaomicron, UniProt Q8A7U5) | Compound NOT metabolized
C#C[C@]1(OC(C)=O)CC[C@H]2[C@@H]3CCC4=CC(=O)CC[C@@H]4[C@H]3CC[C@@]21C [NORETHINDRONE ACETATE] | General stress protein (Bacteroides thetaiotaomicron, UniProt Q8A7U5) | Compound NOT metabolized

---

# Experimental Parameters: bacteroides thetaiotaomicron, 12 h, 2 µM
Measure Name: Bacterial Biotransformation

Known results for compounds:
Compound | Bacterial Biotransformation
CCCCCCOC(=O)/N=C(/N)c1ccc(NCc2nc3cc(C(=O)N(CCC(=O)OCC)c4ccccn4)ccc3n2C)cc1.CS(=O)(=O)O [DABIGATRAN ETEXILATE MESYLATE] | Compound NOT metabolized
CCN(C)C(=O)Oc1cccc([C@H](C)N(C)C)c1.O=C(O)C(O)C(O)C(=O)O [RIVASTIGMINE TARTRATE] | Compound NOT metabolized
CC1=C(CC(=O)O)c2cc(F)ccc2/C1=C\c1ccc([S+](C)[O-])cc1 (centres undefined) | Compound NOT metabolized
CN1C(=O)CC(C)(c2ccccc2)C1=O (centres undefined) [METHSUXIMIDE] | Compound NOT metabolized
CCCCCNC(=N)N/N=C/c1c[nH]c2ccc(OC)cc12.O=C(O)/C=C\C(=O)O [TEGASEROD MALEATE] | Compound NOT metabolized
CCCN1C[C@H](CSC)C[C@@H]2c3cccc4[nH]cc(c34)C[C@H]21.CS(=O)(=O)O [PERGOLIDE MESYLATE] | Compound NOT metabolized

Query: # Bacterial Biotransformation lookup, item CNCC[C@H](Oc1cccc2ccccc12)c1cccs1
Reply: Compound NOT metabolized

Query: Moving on to COC(=O)[C@H]1[C@H]2C[C@@H]3c4[nH]c5cc(OC)ccc5c4CCN3C[C@H]2C[C@@H](OC(=O)c2cc(OC)c(OC)c(OC)c2)[C@@H]1OC
Reply: Compound NOT metabolized

Query: Repeat for the following compound: COc1ccc(CCN(C)CCCC(C#N)(c2ccc(OC)c(OC)c2)C(C)C)cc1OC (centres undefined)
Reply: Compound metabolized

---

# Assay Protocol: The drug is tested on Ruminococcus gnavus strain: ATCC29149 for biotransformation. The drug concentrations were measured before and after a 12-h incubation by liquid-chromatography-coupled mass spectrometry (LC–MS)
# Experimental Parameters: mediterraneibacter gnavus, 2 µM
Measure Name: Bacterial Biotransformation

Solved entries:
Compound | Bacterial Biotransformation
CC(C)(C)NCC(O)c1cc(Cl)c(N)c(Cl)c1 (stereo not drawn) | Compound NOT metabolized
CCOC(=O)C1=C(C)NC(C)=C(C(=O)OC)C1c1cccc([N+](=O)[O-])c1 (stereo not drawn) | Compound metabolized
CC(C)(Oc1ccc(CCNC(=O)c2ccc(Cl)cc2)cc1)C(=O)O [BEZAFIBRATE] | Compound NOT metabolized
CC[C@H](C)C(=O)O[C@H]1CCC=C2C=C[C@H](C)[C@H](CC[C@@H]3C[C@@H](O)CC(=O)O3)[C@H]21 | Compound metabolized
CCc1cccc2c3c([nH]c12)C(CC)(CC(=O)O)OCC3 (stereo not drawn) | Compound NOT metabolized

Query: Data request, read-out Bacterial Biotransformation, for CC(=O)SCC(Cc1ccccc1)C(=O)NCC(=O)OCc1ccccc1 (stereo not drawn)
Reply: Compound NOT metabolized

Query: Next record, please: O=C(O)c1cc(/N=N/c2ccc(S(=O)(=O)Nc3ccccn3)cc2)ccc1O
Reply: Compound metabolized

Query: Also need CCN1CCCC1CNC(=O)c1cc(S(=O)(=O)CC)c(N)cc1OC (stereo not drawn) [AMISULPRIDE] , thanks.
Reply: Compound NOT metabolized

Query: Same question for COC1=C(OC)C(=O)C(CCCCCCCCCCO)=C(C)C1=O please.
Reply: Compound NOT metabolized

---

# Assay Protocol: The drug is tested on Parabacteroides merdae strain: ATCC43184 for biotransformation. The drug concentrations were measured before and after a 12-h incubation by liquid-chromatography-coupled mass spectrometry (LC–MS)
# Experimental Parameters: 2 µM
Measure Name: Bacterial Biotransformation

Compound | Result Value
CCc1nn(CCCN2CCN(c3cccc(Cl)c3)CC2)c(=O)n1CCOc1ccccc1 | Compound NOT metabolized
CN1CCC(OC(c2ccccc2)c2ccccc2)CC1 | Compound NOT metabolized
Clc1cccc(Cl)c1N=C1NCCN1 | Compound NOT metabolized
COc1ccc(C(CN(C)C)C2(O)CCCCC2)cc1 (centres undefined) | Compound NOT metabolized
COc1ccccc1OCCNCC(O)COc1cccc2[nH]c3ccccc3c12 (centres undefined) | Compound metabolized
CC1OC(OC2C(O)CC(OC3C(O)CC(OC4CCC5(C)C(CCC6C5CCC5(C)C(C7=CC(=O)OC7)CCC65O)C4)OC3C)OC2C)CC(O)C1O (centres undefined) | Compound metabolized

Query: Reported Bacterial Biotransformation for O=C(Nc1ccccc1)OCC(CN1CCCCC1)OC(=O)Nc1ccccc1 (centres undefined) : what is it?
Reply: Compound NOT metabolized

Query: What would you report for CC(C)N(CCC(C(N)=O)(c1ccccc1)c1ccccn1)C(C)C.O=P(O)(O)O (centres undefined) [DISOPYRAMIDE PHOSPHATE] ?
Reply: Compound NOT metabolized

Query: // same read-out, input: CCS(=O)(=O)CCn1c([N+](=O)[O-])cnc1C
Reply: Compound metabolized

---

# Assay Protocol: The drug is tested on Bifidobacterium ruminantium strain: fecal isolate for biotransformation. The drug concentrations were measured before and after a 12-h incubation by liquid-chromatography-coupled mass spectrometry (LC–MS)
# Experimental Parameters: 2 µM
Measure Name: Bacterial Biotransformation

Completed entries (count: 6):
Compound | Bacterial Biotransformation
CCCCCOC(=O)Nc1nc(=O)n([C@@H]2O[C@H](C)[C@@H](O)[C@H]2O)cc1F | Compound NOT metabolized
Cc1ccnc2c1NC(=O)c1cccnc1N2C1CC1 | Compound NOT metabolized
CC(=O)O[C@]1(C(C)=O)CC[C@H]2[C@@H]3C=C(C)C4=CC(=O)CC[C@]4(C)[C@H]3CC[C@@]21C [MEGESTROL ACETATE] | Compound metabolized
O=C(NCc1ccccc1)OCCO [BURAMATE] | Compound NOT metabolized
Nc1nc(N)nc(-c2cc(Cl)ccc2Cl)n1.O=C(O)/C=C\C(=O)O [IRSOGLADINE MALEATE] | Compound metabolized
C[C@@H]1CC[C@H]2[C@@H](C)C(=O)O[C@@H]3O[C@@]4(C)CC[C@@H]1[C@]32OO4 | Compound metabolized

Query: Record request: Bacterial Biotransformation value, item COc1c(C)c2c(c(O)c1C/C=C(\C)CCC(=O)OCCN1CCOCC1)C(=O)OC2 [MYCOPHENOLATE MOFETIL]
Reply: Compound metabolized

Query: And then CN1C(=O)CC(C)(c2ccccc2)C1=O (stereo not drawn) [METHSUXIMIDE] , what is it?
Reply: Compound NOT metabolized

---

# Experimental Parameters: parabacteroides johnsonii, 12 h, 2 µM
# Description: The drug is tested on Parabacteroides johnsonii strain: DSM18315 for biotransformation. The drug concentrations were measured before and after a 12-h incubation by liquid-chromatography-coupled mass spectrometry (LC–MS)
Measure Name: Bacterial Biotransformation

Compound | Result Value
Cc1ccc(NC(=O)c2ccc(CN3CCN(C)CC3)cc2)cc1Nc1nccc(-c2cccnc2)n1 [IMATINIB] | Compound NOT metabolized
COCCCC/C(=N\OCCN)c1ccc(C(F)(F)F)cc1.O=C(O)/C=C\C(=O)O [FLUVOXAMINE MALEATE] | Compound NOT metabolized

---

# Assay Protocol: The drug is tested on Bacteroides fragilis strain: ATCC43859 for biotransformation. The drug concentrations were measured before and after a 12-h incubation by liquid-chromatography-coupled mass spectrometry (LC–MS)
# Experimental Parameters: 2 µM

Molecule | Bacterial Biotransformation
CCN(CC)C(=O)/C(C#N)=C/c1cc(O)c(O)c([N+](=O)[O-])c1 [ENTACAPONE] | Compound metabolized
CC(=O)CC(c1ccccc1)c1c(O)c2ccccc2oc1=O (centres undefined) [WARFARIN] | Compound metabolized
CCN(CC)CCOCCOC(=O)C1(c2ccccc2)CCCC1.O=C(O)CC(O)(CC(=O)O)C(=O)O [CARBETAPENTANE CITRATE] | Compound NOT metabolized
CCC(C)n1ncn(-c2ccc(N3CCN(c4ccc(OCC5COC(Cn6cncn6)(c6ccc(Cl)cc6Cl)O5)cc4)CC3)cc2)c1=O (centres undefined) [ITRACONAZOLE] | Compound NOT metabolized

Measured values drawn from ChEMBL document CHEMBL5303573 for this set.
